Values compiled from paper PMC7851014.

- experimental details: Ibrutinib and SMT-conjugate pharmacokinetics in human subjects (plasma of patients A and B)
- condition description: human, 560 mg, Concentration, patient B, sample ID 24, T 4.4 h, 1xdd 560mg, group max
measurement label: concentration at 4.4 h (µM)
# value in µM; strip the unit string

Nc1ncnc2c1c(-c1ccc(Oc3ccccc3)cc1)nn2[C@@H]1CCCN(C(=O)CCSC[C@H](N)C(=O)O)C1	0.21

Lookup: Provide measured concentration at 4.4 h value, entry: `Nc1ncnc2c1c(-c1ccc(Oc3ccccc3)cc1)nn2[C@@H]1CCCN(C(=O)CCSC[C@H](NC(=O)CC[C@H](N)C(=O)O)C(=O)NCC(=O)O)C1`
Found: 0.0014

Lookup: Provide measured concentration at 4.4 h value, entry: Nc1ncnc2c1c(-c1ccc(Oc3ccccc3)cc1)nn2[C@@H]1CCCN(C(=O)C(O)CO)C1 (stereo partly shown) [DHI, dihydrodiol-ibrutinib]
Found: 0.484

Lookup: Provide measured concentration at 4.4 h value, entry: `Nc1ncnc2c1c(-c1ccc(Oc3ccccc3)cc1)nn2[C@@H]1CCCN(C(=O)CCSC[C@H](N)C(=O)NCC(=O)O)C1`
Found: 0.16

---

- experimental details: Ibrutinib and SMT-conjugate pharmacokinetics in human subjects (plasma of patients A and B)
- condition description: human, in vivo, 560 mg, Concentration, patient B, sample ID 9, T 4.4 h, 1xdd 560mg, group max
measurement label: concentration at 4.4 h (nM)
# value in nM; strip the unit string

Lookup: Provide measured concentration at 4.4 h value, entry: C=CC(=O)N1CCC[C@@H](n2nc(-c3ccc(Oc4ccccc4)cc3)c3c(N)ncnc32)C1 [Ibrutinib, reference compound]
Found: 192

---

- experimental details: Ibrutinib and SMT-conjugate pharmacokinetics in human subjects (plasma of patients A and B)
- condition description: human
measurement label: half-life (h)
# value in h; strip the unit string

Nc1ncnc2c1c(-c1ccc(Oc3ccccc3)cc1)nn2[C@@H]1CCCN(C(=O)CCSC[C@H](N)C(=O)O)C1	4.2
Nc1ncnc2c1c(-c1ccc(Oc3ccccc3)cc1)nn2[C@@H]1CCCN(C(=O)C(O)CO)C1 (stereo partly drawn) [DHI, dihydrodiol-ibrutinib]	6.1

Lookup: Provide measured half-life value, entry: `Nc1ncnc2c1c(-c1ccc(Oc3ccccc3)cc1)nn2[C@@H]1CCCN(C(=O)CCSC[C@H](N)C(=O)NCC(=O)O)C1`
Found: 3

---

- experimental details: Ibrutinib and SMT-conjugate pharmacokinetics in human subjects (plasma of patients A and B)
- condition description: human, 420 mg, Concentration, patient A, sample ID 5, T 0.5 h, 1xdd 420mg, group abs
measurement label: concentration at 0.5 h (nM)
# value in nM; strip the unit string

Before answering, review these 2 worked examples.
Nc1ncnc2c1c(-c1ccc(Oc3ccccc3)cc1)nn2[C@@H]1CCCN(C(=O)C(O)CO)C1 (stereo partly drawn) [DHI, dihydrodiol-ibrutinib]	51.6
Nc1ncnc2c1c(-c1ccc(Oc3ccccc3)cc1)nn2[C@@H]1CCCN(C(=O)CCSC[C@H](N)C(=O)O)C1 [ICYS]	5.1

The record that follows has no concentration at 0.5 h shown yet.
Lookup: Provide measured concentration at 0.5 h value, entry: Nc1ncnc2c1c(-c1ccc(Oc3ccccc3)cc1)nn2[C@@H]1CCCN(C(=O)CCSC[C@H](N)C(=O)NCC(=O)O)C1 [ICGS]
Found: 5.4

---

- experimental details: Ibrutinib and SMT-conjugate pharmacokinetics in human subjects (plasma of patients A and B)
- condition description: human, 420 mg, Concentration, patient A, sample ID 8, T 22.7 h, 1xdd 420mg, group trough
Consider the following molecules and their measured concentration at 22.7 h readings.
# value in nM; strip the unit string

Before answering, review these 2 worked examples.
Nc1ncnc2c1c(-c1ccc(Oc3ccccc3)cc1)nn2[C@@H]1CCCN(C(=O)C(O)CO)C1 (stereo partly drawn) [DHI, dihydrodiol-ibrutinib]	86.6
Nc1ncnc2c1c(-c1ccc(Oc3ccccc3)cc1)nn2[C@@H]1CCCN(C(=O)CCSC[C@H](N)C(=O)O)C1 [ICYS]	6.4

The record that follows has no concentration at 22.7 h shown yet.
Lookup: Provide measured concentration at 22.7 h value, entry: Nc1ncnc2c1c(-c1ccc(Oc3ccccc3)cc1)nn2[C@@H]1CCCN(C(=O)CCSC[C@H](N)C(=O)NCC(=O)O)C1 [ICGS]
Found: 5.6
